Origin of the recorded values: the supplement of paper PMC11555231

- TARGET OR SYSTEM: PADI4, Q9UM07
- Sequence (Q9UM07 whole entry): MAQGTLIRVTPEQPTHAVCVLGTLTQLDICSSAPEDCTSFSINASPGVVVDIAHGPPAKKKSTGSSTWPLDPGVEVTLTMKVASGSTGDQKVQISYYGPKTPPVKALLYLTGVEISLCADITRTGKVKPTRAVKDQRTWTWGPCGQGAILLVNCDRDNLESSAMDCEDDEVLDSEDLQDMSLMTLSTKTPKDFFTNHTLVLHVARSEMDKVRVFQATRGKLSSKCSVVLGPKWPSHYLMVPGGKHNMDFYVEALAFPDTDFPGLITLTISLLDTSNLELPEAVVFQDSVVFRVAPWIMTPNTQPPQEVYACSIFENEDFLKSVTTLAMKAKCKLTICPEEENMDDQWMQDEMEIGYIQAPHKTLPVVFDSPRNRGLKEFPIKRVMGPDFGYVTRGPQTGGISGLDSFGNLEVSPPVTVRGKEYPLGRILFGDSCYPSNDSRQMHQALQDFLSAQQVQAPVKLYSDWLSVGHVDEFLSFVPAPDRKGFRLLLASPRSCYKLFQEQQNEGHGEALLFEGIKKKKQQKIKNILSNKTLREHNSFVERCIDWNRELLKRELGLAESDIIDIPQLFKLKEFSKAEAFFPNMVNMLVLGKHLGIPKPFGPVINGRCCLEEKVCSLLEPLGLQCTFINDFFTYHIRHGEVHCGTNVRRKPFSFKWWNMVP
- ASSAY NAME: log2 enrichment score relative to parent PADI4_3 peptide (binding to PADI4); higher = tighter binding than parent
- EXPERIMENTAL PARAMETERS: CaCl2: 10 mM
ENDPOINT NAME: log2 enrichment score
Keep it simple and answer with nothing but the number.

INSERT INTO results (binder, endpoint_name, value_observed) VALUES
  ('YRDHHYRHRKYCG [PADI4_3_P9R P9R]', 'log2 enrichment score', -1.83),
  ('YRDHHYRHCKYCG [PADI4_3_P9C P9C]', 'log2 enrichment score', -2.79),
  ('YRDHHYRHIKYCG [PADI4_3_P9I P9I]', 'log2 enrichment score', -1.78),
  ('YRDHQYRHPKYCG [PADI4_3_H5Q H5Q]', 'log2 enrichment score', -3.72),
  ('YRDHHYRHPKYCG [PADI4_3_R7R R7R]', 'log2 enrichment score', 0),
  ('YRDHHYRLPKYCG [PADI4_3_H8L H8L]', 'log2 enrichment score', -3.01),
  ('YRDAHYRHPKYCG [PADI4_3_H4A H4A]', 'log2 enrichment score', -1.88);

In the following, a different binder is considered.
[Q] Value lookup for log2 enrichment score; key = YRLHHYRHPKYCG [PADI4_3_D3L D3L]
[A] -2.88
